As shown below, each of these molecules has a reported pIC50 value.
study-system: CCR5 receptor (Homo sapiens, UniProt P51681)
Sequence (P51681 whole entry): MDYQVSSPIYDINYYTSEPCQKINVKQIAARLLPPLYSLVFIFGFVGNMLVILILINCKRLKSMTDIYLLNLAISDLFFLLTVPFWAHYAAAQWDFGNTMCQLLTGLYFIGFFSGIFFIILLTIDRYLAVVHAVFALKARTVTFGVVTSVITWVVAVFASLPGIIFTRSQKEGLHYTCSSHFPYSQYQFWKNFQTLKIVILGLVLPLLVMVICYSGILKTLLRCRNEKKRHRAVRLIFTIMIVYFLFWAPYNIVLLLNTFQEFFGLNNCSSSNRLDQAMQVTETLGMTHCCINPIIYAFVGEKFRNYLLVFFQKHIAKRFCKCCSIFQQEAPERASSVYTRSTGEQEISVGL
test-description: 125I-MIP-1β binding competition assay
Design: expressed in transfected cells; host or cells: membranes of recombinant Chinese hamster ovary (CHO) cells
condition-description: membranes of CHO cells expressing human CCR5; 0.05 nM 125I-MIP-1β
Method: The ability of the compounds of the invention to inhibit the binding of MIP-1β was assessed by an in vitro radioligand binding assay. Membranes were prepared from Chinese hamster ovary recombinant cells which express the human CCR5 receptor. […] The amount of iodinated MIP-1β bound to the receptor was determined after filtration by the quantification of membrane associated radioactivity using the TopCount-NXT reader (Packard). […]
pIC50: −log10 of the molar value.
experimental-endpoint: pIC50

>  <molecule>
C[C@H](CN(c1cccc(F)c1)S(=O)(=O)Cc1ccccc1)N1CCC(NC(=O)Cc2ccc(F)cc2F)CC1

>  <study-system>
CCR5 receptor (Homo sapiens, UniProt P51681)

>  <measured-number>
9.70

$$$$
>  <molecule>
COc1ccc(CC(=O)NC2CCN(CCC(c3ccccc3)c3ccccc3)CC2)cc1

>  <study-system>
CCR5 receptor (Homo sapiens, UniProt P51681)

>  <measured-number>
7.83

$$$$
>  <molecule>
O=C(Cc1ccc(OC(F)(F)F)cc1)NC1CCN(CCC(c2ccccc2)c2ccccc2)CC1

>  <study-system>
CCR5 receptor (Homo sapiens, UniProt P51681)

>  <measured-number>
7.63

$$$$
>  <molecule>
O=C(CC1CCCCC1)NC1CCN(CCC(c2ccccc2)c2ccccc2)CC1

>  <study-system>
CCR5 receptor (Homo sapiens, UniProt P51681)

>  <measured-number>
6.80

$$$$
>  <molecule>
C[C@H](CN(c1ccccc1)S(=O)(=O)Cc1ccccc1)N1CCC(NC(=O)Cc2ccc(C#N)cc2)CC1

>  <study-system>
CCR5 receptor (Homo sapiens, UniProt P51681)

>  <measured-number>
9.30

$$$$
>  <molecule>
CC(CC(c1ccccc1)c1ccccc1)N1CCC(NC(=O)Cc2ccc(S(C)(=O)=O)cc2)CC1 (stereo not drawn)

>  <study-system>
CCR5 receptor (Homo sapiens, UniProt P51681)

>  <measured-number>
9.85

$$$$
>  <molecule>
C[C@H](CN(c1cccc(F)c1)S(=O)(=O)Cc1ccccc1)N1CCC(NC(=O)Cc2ccc(F)cc2)CC1

>  <study-system>
CCR5 receptor (Homo sapiens, UniProt P51681)

>  <measured-number>
9.70

$$$$
>  <molecule>
O=C(Cc1c[nH]c2ccccc12)NC1CCN(CCC(c2ccccc2)c2ccccc2)CC1

>  <study-system>
CCR5 receptor (Homo sapiens, UniProt P51681)

>  <measured-number>
7.17

$$$$
>  <molecule>
C[C@H](CN(c1cccc(F)c1)S(=O)(=O)Cc1ccccc1)N1CCC(NC(=O)Cc2ccc(C(F)(F)F)cc2)CC1

>  <study-system>
CCR5 receptor (Homo sapiens, UniProt P51681)

>  <measured-number>
9.15

$$$$
>  <molecule>
CC(CC(c1ccccc1)c1ccccc1)N1CCC(NC(=O)Cc2ccc(C#N)cc2)CC1 (stereo not drawn)

>  <study-system>
CCR5 receptor (Homo sapiens, UniProt P51681)

>  <measured-number>
9.19

$$$$
>  <molecule>
CS(=O)(=O)c1ccc(CC(=O)NC2CCN(CCC(c3ccccc3)c3ccccc3)CC2)cc1

>  <study-system>
CCR5 receptor (Homo sapiens, UniProt P51681)

>  <measured-number>
8.18

$$$$
>  <molecule>
O=C(Cc1ccc(Cl)cc1)NC1CCN(CCC(c2ccccc2)c2ccccc2)CC1

>  <study-system>
CCR5 receptor (Homo sapiens, UniProt P51681)

>  <measured-number>
8.03

$$$$
>  <molecule>
N#Cc1ccc(CC(=O)NC2CCN(CCC(c3ccccc3)c3ccccc3)CC2)cc1

>  <study-system>
CCR5 receptor (Homo sapiens, UniProt P51681)

>  <measured-number>
8.49

$$$$
>  <molecule>
O=C(Cc1ccccc1)NC1CCN(CCC(c2ccccc2)c2ccccc2)CC1

>  <study-system>
CCR5 receptor (Homo sapiens, UniProt P51681)

>  <measured-number>
7.57

$$$$
>  <molecule>
C[C@H](CN(c1cccc(F)c1)S(=O)(=O)Cc1ccccc1)N1CCC(NC(=O)Cc2ccccc2F)CC1

>  <study-system>
CCR5 receptor (Homo sapiens, UniProt P51681)

>  <measured-number>
9.10

$$$$
